# Study system: HiBit-BRG1 fusion protein (Homo sapiens)
# Construct: expressed in transfected cells
# Sequence (P51532 whole entry, the tested form may be a part): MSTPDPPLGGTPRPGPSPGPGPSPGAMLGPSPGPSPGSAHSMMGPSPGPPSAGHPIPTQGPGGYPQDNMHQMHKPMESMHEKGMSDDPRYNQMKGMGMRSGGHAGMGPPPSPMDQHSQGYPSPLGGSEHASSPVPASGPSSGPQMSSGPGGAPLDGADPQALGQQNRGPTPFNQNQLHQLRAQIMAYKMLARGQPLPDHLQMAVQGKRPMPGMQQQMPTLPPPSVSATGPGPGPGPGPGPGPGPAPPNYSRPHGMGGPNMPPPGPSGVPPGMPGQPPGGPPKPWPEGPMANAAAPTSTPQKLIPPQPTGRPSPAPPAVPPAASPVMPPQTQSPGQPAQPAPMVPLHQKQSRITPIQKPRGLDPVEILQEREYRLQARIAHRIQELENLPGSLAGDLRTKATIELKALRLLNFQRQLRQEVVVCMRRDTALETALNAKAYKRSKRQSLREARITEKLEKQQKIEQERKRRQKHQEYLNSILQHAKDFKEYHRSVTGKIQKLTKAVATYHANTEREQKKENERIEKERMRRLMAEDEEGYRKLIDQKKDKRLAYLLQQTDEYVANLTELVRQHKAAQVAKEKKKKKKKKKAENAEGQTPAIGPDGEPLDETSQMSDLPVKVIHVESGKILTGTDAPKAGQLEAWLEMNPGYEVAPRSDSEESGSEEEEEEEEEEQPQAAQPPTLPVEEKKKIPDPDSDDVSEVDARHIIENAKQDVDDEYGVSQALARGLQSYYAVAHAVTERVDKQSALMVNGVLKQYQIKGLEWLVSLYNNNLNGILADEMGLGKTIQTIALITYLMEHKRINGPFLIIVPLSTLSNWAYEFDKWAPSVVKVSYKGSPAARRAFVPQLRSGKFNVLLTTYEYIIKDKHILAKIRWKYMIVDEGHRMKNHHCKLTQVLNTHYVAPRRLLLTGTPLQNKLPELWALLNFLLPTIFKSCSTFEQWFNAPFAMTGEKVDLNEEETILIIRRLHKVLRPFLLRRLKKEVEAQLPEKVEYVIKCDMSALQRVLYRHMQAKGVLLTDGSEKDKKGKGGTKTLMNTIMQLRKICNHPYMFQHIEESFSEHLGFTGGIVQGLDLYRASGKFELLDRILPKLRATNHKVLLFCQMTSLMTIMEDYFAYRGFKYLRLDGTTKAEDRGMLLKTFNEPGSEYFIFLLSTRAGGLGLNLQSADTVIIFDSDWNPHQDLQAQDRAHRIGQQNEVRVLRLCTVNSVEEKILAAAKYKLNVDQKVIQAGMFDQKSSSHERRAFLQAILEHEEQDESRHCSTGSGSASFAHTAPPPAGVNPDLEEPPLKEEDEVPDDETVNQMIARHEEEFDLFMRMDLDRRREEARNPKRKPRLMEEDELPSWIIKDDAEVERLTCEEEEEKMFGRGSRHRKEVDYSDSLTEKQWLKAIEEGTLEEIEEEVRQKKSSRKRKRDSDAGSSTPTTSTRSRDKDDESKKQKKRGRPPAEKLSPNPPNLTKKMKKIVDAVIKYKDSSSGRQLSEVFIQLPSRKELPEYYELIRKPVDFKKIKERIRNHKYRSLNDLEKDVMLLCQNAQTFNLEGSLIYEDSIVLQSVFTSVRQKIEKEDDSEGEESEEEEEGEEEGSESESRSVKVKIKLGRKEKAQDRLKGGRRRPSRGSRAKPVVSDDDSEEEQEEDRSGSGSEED
# Assay details: HiBiT-BRG1 cell-based degradation assay (Nano-Glo HiBiT Lytic Detection, 24 h)
# Condition notes: HeLa, HeLa cells expressing HiBit-BRG1 and LgBit, top dose 30 μM, read-out: BRG1 HiBit Degradation Maximum measured
Endpoint label: Dmax

Molecule	Dmax
CS(=O)(=O)n1ccc(C(=O)NCC(=O)Nc2nc(-c3cccc(-c4ccnc(C5(C(=O)NCCOc6ccc7c(c6)C(=O)N(C6CCC(=O)NC6=O)C7=O)CC5)c4)c3)cs2)c1 (stereo not shown) [Compound 161]	> 75%
CS(=O)(=O)n1ccc(C(=O)NCC(=O)Nc2nc(-c3cccc(-c4ccnc(C5(C(=O)N6CC(COc7cccc8c7C(=O)N(C7CCC(=O)NC7=O)C8=O)C6)CC5)c4)c3)cs2)c1 (stereo not shown) [Compound 109]	< 50%
CS(=O)(=O)n1ccc(C(=O)NCC(=O)Nc2nc(C3CCCN(C(=O)CCCCCCCCCCNc4ccc5c(c4)C(=O)N(C4CCC(=O)NC4=O)C5=O)C3)cs2)c1 (stereo not shown) [Compound 143]	< 50%
Cc1ncsc1-c1ccc(CNC(=O)[C@@H]2C[C@@H](O)CN2C(=O)[C@@H](NC(=O)COCCOCCOCCNC(=O)c2ccc(COC[C@H](NC(=O)c3ccn(S(C)(=O)=O)c3)C(=O)Nc3nc(-c4ccccc4)cs3)cc2)C(C)(C)C)cc1 [Compound 189]	< 50%
CS(=O)(=O)n1ccc(C(=O)N[C@@H](COCc2ccc(C(=O)NCCOc3cccc(OCCNc4cccc5c4C(=O)N(C4CCC(=O)NC4=O)C5=O)c3)cc2)C(=O)Nc2nc(-c3ccccc3)cs2)c1 (stereo partly shown) [Compound 206]	< 50%

For the 6 molecules below, give their Dmax values.
1. CS(=O)(=O)n1ccc(C(=O)N[C@@H](COCc2ccc(CNC(=O)CCCCOc3cccc4c3C(=O)N(C3CCC(=O)NC3=O)C4=O)cc2)C(=O)Nc2nc(-c3ccccc3)cs2)c1 (stereo partly shown) [Compound 212]
2. CS(=O)(=O)n1ccc(C(=O)N[C@@H](CCOCCCC(=O)N2CC(COc3cccc4c3C(=O)N(C3CCC(=O)NC3=O)C4=O)C2)C(=O)Nc2nc(-c3ccccc3)cs2)c1 (stereo partly shown) [Compound 259]
3. CS(=O)(=O)n1ccc(C(=O)NCC(=O)Nc2nc(-c3cccc(-c4ccnc(C5(C(=O)NCCNc6cccc7c6CN(C6CCC(=O)NC6=O)C7=O)CC5)c4)c3)cs2)c1 (stereo not shown) [Compound 169]
4. CS(=O)(=O)n1ccc(C(=O)NCC(=O)Nc2nc(-c3cccc(-c4ccnc(OCCNC(=O)CCOCCOCCOc5ccc6c(c5)C(=O)N(C5CCC(=O)NC5=O)C6=O)c4)c3)cs2)c1 (stereo not shown) [Compound 38]
5. CS(=O)(=O)n1ccc(C(=O)N[C@@H](COCc2ccc(CNC(=O)CCOCCOCCOc3cccc4c3C(=O)N(C3CCC(=O)NC3=O)C4=O)cc2)C(=O)Nc2nc(-c3ccccc3)cs2)c1 (stereo partly shown) [Compound 182]
6. CS(=O)(=O)n1ccc(C(=O)NCC(=O)Nc2nc(-c3cccc(-c4ccn(CC(=O)N5CCC(C6CCN(C(=O)COc7cccc8c7C(=O)N(C7CCC(=O)NC7=O)C8=O)CC6)CC5)n4)c3)cs2)c1 (stereo not shown) [Compound 4]

< 50%
< 50%
< 50%
> 75%
< 50%
< 50%

For the 7 molecules below, give their Dmax values.
1. CS(=O)(=O)n1ccc(C(=O)NC(CCOCCCC(=O)NC2CCN(CCOc3ccc4c(c3)C(=O)N(C3CCC(=O)NC3=O)C4=O)CC2)C(=O)Nc2nc(-c3ccccc3)cs2)c1 (stereo not shown) [Compound 279]
2. CS(=O)(=O)n1ccc(C(=O)NCC(=O)Nc2nc(-c3cccc(-c4ccnc(C5(C(=O)N6CCC(C7CCN(C(=O)COc8cccc9c8C(=O)N(C8CCC(=O)NC8=O)C9=O)CC7)CC6)CC5)c4)c3)cs2)c1 (stereo not shown) [Compound 14]
3. CS(=O)(=O)n1ccc(C(=O)NCC(=O)Nc2nc(-c3cccc(-c4ccn(CC(=O)NCCCCCCCCNC(=O)COc5cccc6c5C(=O)N(C5CCC(=O)NC5=O)C6=O)n4)c3)cs2)c1 (stereo not shown) [Compound 5]
4. CS(=O)(=O)n1ccc(C(=O)N[C@@H](CCOCCCC(=O)NCCOc2cccc(OCCNc3cccc4c3C(=O)N(C3CCC(=O)NC3=O)C4=O)c2)C(=O)Nc2nc(-c3ccccc3)cs2)c1 (stereo partly shown) [Compound 270]
5. CS(=O)(=O)n1ccc(C(=O)NCC(=O)Nc2nc(-c3cccc(-c4ccnc(N5CCN(C(=O)CCOCCOCCNc6cccc7c6C(=O)N(C6CCC(=O)NC6=O)C7=O)CC5)c4)c3)cs2)c1 (stereo not shown) [Compound 31]
6. CS(=O)(=O)n1ccc(C(=O)N[C@@H](CCOCCCC(=O)N2CC(CN3CCN(c4ccc5c(c4)C(=O)N(C4CCC(=O)NC4=O)C5=O)CC3)C2)C(=O)Nc2nc(-c3ccccc3)cs2)c1 (stereo partly shown) [Compound 221]
7. CS(=O)(=O)n1ccc(C(=O)N[C@@H](COCc2ccc(C(=O)NCCCCCCNc3ccc4c(c3)C(=O)N(C3CCC(=O)NC3=O)C4=O)cc2)C(=O)Nc2nc(-c3ccccc3)cs2)c1 (stereo partly shown) [Compound 201]

["< 50%", "< 50%", "< 50%", "< 50%", "> 75%", "< 50%", "> 75%"]

I would be grateful if you could share the reported Dmax for Cc1ncsc1-c1ccc(CNC(=O)[C@@H]2C[C@@H](O)CN2C(=O)[C@@H](NC(=O)CCCCCCCCC(=O)NCc2cccc(-c3cccc(-c4csc(NC(=O)CNC(=O)c5ccn(S(C)(=O)=O)c5)n4)c3)c2)C(C)(C)C)cc1 [Compound 19] .
> 75%
